Measured values drawn from paper PMC5421785 for this set.

- test_target: HLA-DRB1*01:01 (Homo sapiens, UniProt P01903+P01911, A100R/D57E/F55L/F60I/F76Y/I96L/L162R/M171V/P40L/Q125E/R42F/V115G/Y59C)
- Construct: EBV transformed homozygous cell lines were used as sources of MHC molecules; endogenous in cells; host or cells: EBV transformed homozygous cell lines
- experiment_notes: HLA class II peptide binding, inhibition of radiolabeled peptide binding to purified MHC
- setup_conditions: citrullinated 15-mer peptide (X = citrulline); purified HLA-DRB1*01:01; read-out: DRB1*01:01 binding capacity, Cit peptide (IC50 nM)
Square brackets hold non-standard residues; d marks the D form. Peptide text beside a SMILES is read from it. Cit = NC(=O)NCCC[C@H](N)C(=O)O
metric: IC50 (nM)
A number alone suffices; assume nM.

Challenge: Could you tell me which IC50 is on file for N=C(N)NCCC[C@H](NC(=O)[C@H](CCC(=O)O)NC(=O)CNC(=O)[C@@H]1CCCN1C(=O)[C@H](Cc1ccccc1)NC(=O)CNC(=O)[C@H](CCCNC(N)=O)NC(=O)[C@H](CCC(=O)O)NC(=O)CNC(=O)[C@H](CCCNC(=N)N)NC(=O)[C@@H]1CCCN1C(=O)CN)C(=O)NCC(=O)N[C@@H](CO)C(=O)N1CCC[C@H]1C(=O)O [GPRGEXGFPGERGSP] (H-GPRGE[Cit]GFPGERGSP-OH) ?
Response given: 18000

Challenge: Here is the next molecule: CC[C@H](C)[C@H](NC(=O)CNC(=O)[C@H](CCCNC(=N)N)NC(=O)[C@H](CCC(N)=O)NC(=O)CNC(=O)[C@H](C)NC(=O)[C@@H](N)CC(C)C)C(=O)N[C@H](C(=O)NCC(=O)N[C@@H](CC(C)C)C(=O)N1CCC[C@H]1C(=O)NCC(=O)N[C@@H](CCC(N)=O)C(=O)N[C@@H](CCCNC(N)=O)C(=O)NCC(=O)O)C(C)C [LAGQRGIVGLPGQXG] (H-LAGQRGIVGLPGQ[Cit]G-OH)
Response given: 1.3

Challenge: Now the molecule CC(C)[C@H](NC(=O)[C@H](CCC(N)=O)NC(=O)[C@H](CCCNC(N)=O)NC(=O)[C@H](CCCNC(=N)N)NC(=O)[C@H](Cc1ccc(O)cc1)NC(=O)[C@H](CCC(=O)O)NC(=O)[C@@H](NC(=O)[C@H](CO)NC(=O)[C@H](CCC(=O)O)NC(=O)[C@H](CCC(N)=O)NC(=O)[C@H](CCCCN)NC(=O)[C@H](C)NC(=O)[C@@H](N)CCC(N)=O)[C@@H](C)O)C(=O)N[C@@H](CCC(N)=O)C(=O)N[C@@H](CO)C(=O)O [QAKQESTEYRXQVQS] (H-QAKQESTEYR[Cit]QVQS-OH)
Response given: 1740

Challenge: // query: CSCC[C@H](NC(=O)[C@@H](NC(=O)CNC(=O)[C@@H](N)CC(C)C)C(C)C)C(=O)N[C@@H](CCC(N)=O)C(=O)NCC(=O)N1CCC[C@H]1C(=O)N[C@@H](CCSC)C(=O)NCC(=O)N1CCC[C@H]1C(=O)N[C@@H](CCSC)C(=O)NCC(=O)N1CCC[C@H]1C(=O)N[C@@H](CCCNC(N)=O)C(=O)NCC(=O)O [LGVMQGPMGPMGPXG] (H-LGVMQGPMGPMGP[Cit]G-OH)
Response given: 220
